# Target Or Test System: T1, recombinant KIT D4/D5 (human, UniProt P10721 26-519)
# T1 construct: also called recombinant c-Kit Ig-like domains D4/D5; recombinant polypeptide of the D4/D5 region of human KIT
# T1 sequence (P10721 other isoform, or with tags, fused parts or gaps limits assumed): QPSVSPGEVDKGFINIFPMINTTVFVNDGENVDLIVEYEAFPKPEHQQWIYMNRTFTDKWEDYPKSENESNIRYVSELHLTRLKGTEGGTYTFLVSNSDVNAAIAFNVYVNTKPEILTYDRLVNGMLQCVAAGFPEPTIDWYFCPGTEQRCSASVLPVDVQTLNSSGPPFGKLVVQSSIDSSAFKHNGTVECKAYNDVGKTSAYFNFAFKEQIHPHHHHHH
# Experiment: solid phase ELISA, plate-adsorbed recombinant D4/D5 region of human KIT (FIG. 5)
pEC50: −log10 of the molar value.
Assay Readout: pEC50

Worked examples, 2 binders total:
Entry chimeric antibody 37C (antibody, V domains shown, also called chimera of antibody 37M; chimera) VH: QVQLKQSGAELVRPGASVKLSCKASGYTFTDYYINWVKQRPGQGLEWIARIYPGSGNTYYNEKFKGKATLTAEKSSSTAYMQLSSLTSEDSAVYFCARGVYYFDYWGQGTTLTVSA VL: DIVMTQSQKFMSTSVGDRVSVTCKASQNVRTNVAWYQQKPGQSPKALIYSASYRYSGVPDRFTGSGSGTDFTLTISNVQSEDLADYFCQQYNSYPRTFGGGTKLEIK , pEC50 reported as ~10.92

Entry Hum17 (antibody, V domains shown) VH: QVQLVQSGAEVKKPGASVKLSCKASGYTFTDYYINWVKQAPGKGLEWIARIYPGSGNTYYNEKFKGRATLTAEKSTSTAYMQLSSLRSEDTAVYFCARGVYYFDYWGQGTTVTVSS VL: DIVMTQSPSSLSASVGDRVTITCKASQNVRTNVAWYQQKPGKAPKSLIYSASYRYSGVPDRFSGSGSGTDFTLTISSLQPEDFATYYCQQYNSYPRTFGGGTKVEIK , pEC50 reported as ~11.18

More entries:
Entry Hum8 (antibody, V domains shown) VH: QVQLVQSGAEVKKPGASVKLSCKASGYTFTDYYINWVRQAPGKGLEWIARIYPGSGNTYYNEKFKGRATLTADKSTSTAYMQLSSLRSEDTAVYFCARGVYYFDYWGQGTTVTVSS VL: DIVMTQSPSSLSASVGDRVTITCKASQNVRTNVAWYQQKPGKAPKALIYSASYRYSGVPDRFTGSGSGTDFTLTISSLQPEDFADYFCQQYNSYPRTFGGGTKVEIK , pEC50 reported as ~10.96
